Task for the reader: assign each of the following compounds its reported Bliss excess.
- System: EFM-19 (Breast Carcinoma)
- Protocol Notes: Bliss excess, mean over the matrix (fraction); higher = more synergy
Answer with the value's number alone.

query: Reported Bliss excess for CC1(C)CCC(CN2CCN(c3ccc(C(=O)NS(=O)(=O)c4ccc(NCC5CCOCC5)c([N+](=O)[O-])c4)c(Oc4cnc5[nH]ccc5c4)c3)CC2)=C(c2ccc(Cl)cc2)C1 [Venetoclax] + Cc1cc2ncnn2cc1Nc1ncc2c(n1)n(C1CCOCC1)c(=O)n2C [AZD7648] (first compound max 1 µM, 7x7, partner max 10 µM) : what is it?
result: -0.0469

query: Reported Bliss excess for CC1(C)CCC(CN2CCN(c3ccc(C(=O)NS(=O)(=O)c4ccc(NCC5CCOCC5)c([N+](=O)[O-])c4)c(Oc4cnc5[nH]ccc5c4)c3)CC2)=C(c2ccc(Cl)cc2)C1 [Venetoclax] + C[C@@H](Nc1cc(F)cc(F)c1)c1cc(C(=O)N(C)C)cc2c(=O)cc(N3CCOCC3)oc12 [AZD8186] (first compound max 1 µM, 7x7, partner max 3 µM) : what is it?
result: -0.0099

query: Reported Bliss excess for CC(=O)c1c(C)c2cnc(Nc3ccc(N4CCNCC4)cn3)nc2n(C2CCCC2)c1=O [Palbociclib] + Cn1cnc2c(F)c(Nc3ccc(Br)cc3Cl)c(C(=O)NOCCO)cc21 [Selumetinib] (first compound max 10 µM, 7x7, partner max 10 µM) : what is it?
result: -0.0313

query: Reported Bliss excess for COc1cccc(OCCCN)c1-c1cc(Nc2cnc(C#N)cn2)n[nH]1 [Prexasertib] + O=C(c1cc(Cc2n[nH]c(=O)c3ccccc23)ccc1F)N1CCN(C(=O)C2CC2)CC1 [Olaparib] (first compound max 1 µM, 7x7, partner max 10 µM) : what is it?
result: -0.0094

---

- Tested on: OVCAR-4 (Ovarian Carcinoma)
- Protocol Notes: combination Emax (second highest fraction inhibited in the dose matrix, 72 h); higher = more inhibition; extreme values may be limits of the assay
Readout Type: combination Emax
Answer with the value's number alone.

query: Reported combination Emax for C[C@@H](c1ccc2nccn2c1)n1nnc2ncc(-c3cnn(C)c3)nc21 [Savolitinib] + Cc1c2c(nn1C)CSCc1cc(n(C)n1)CSc1cc(c3ccccc3c1)OCCCc1c(C(=O)O)n(C)c3c-2c(Cl)ccc13 [AZD5991] (first compound max 1 µM, 7x7, partner max 1 µM) : what is it?
result: 0.138

query: Reported combination Emax for CC(=O)Nc1cccc(-n2c(=O)n(C3CC3)c(=O)c3c(Nc4ccc(I)cc4F)n(C)c(=O)c(C)c32)c1 [Trametinib] + Cc1nc(-c2cn3c(n2)-c2ccc(-c4cnn(C(C)(C)C(N)=O)c4)cc2OCC3)n(C(C)C)n1 [Taselisib] (first compound max 1 µM, 7x7, partner max 10 µM) : what is it?
result: 0.518

query: Reported combination Emax for C[C@@H](c1ccc2nccn2c1)n1nnc2ncc(-c3cnn(C)c3)nc21 [Savolitinib] + CC1(C)CCC(CN2CCN(c3ccc(C(=O)NS(=O)(=O)c4ccc(NCC5CCOCC5)c([N+](=O)[O-])c4)c(Oc4cnc5[nH]ccc5c4)c3)CC2)=C(c2ccc(Cl)cc2)C1 [Venetoclax] (first compound max 1 µM, 7x7, partner max 1 µM) : what is it?
result: 0.0979

---

- System: Caov-4 (Ovarian Carcinoma)
- Protocol Notes: Bliss excess, mean over the matrix (fraction); higher = more synergy
Readout Type: Bliss excess
Answer with the value's number alone.

query: Reported Bliss excess for CC1(C)CCC(CN2CCN(c3ccc(C(=O)NS(=O)(=O)c4ccc(NCC5CCOCC5)c([N+](=O)[O-])c4)c(Oc4cnc5[nH]ccc5c4)c3)CC2)=C(c2ccc(Cl)cc2)C1 [Venetoclax] + Cn1cnc2c(F)c(Nc3ccc(Br)cc3Cl)c(C(=O)NOCCO)cc21 [Selumetinib] (first compound max 1 µM, 7x7, partner max 3 µM) : what is it?
result: 0.0087

query: Reported Bliss excess for Cn1cnc2c(F)c(Nc3ccc(Br)cc3Cl)c(C(=O)NOCCO)cc21 [Selumetinib] + C=CCn1c(=O)c2cnc(Nc3ccc(N4CCN(C)CC4)cc3)nc2n1-c1cccc(C(C)(C)O)n1 [AZD1775] (first compound max 10 µM, partner max 1 µM) : what is it?
result: -0.0097

query: Reported Bliss excess for CC1(C)CCC(CN2CCN(c3ccc(C(=O)NS(=O)(=O)c4ccc(NCC5CCOCC5)c([N+](=O)[O-])c4)c(Oc4cnc5[nH]ccc5c4)c3)CC2)=C(c2ccc(Cl)cc2)C1 [Venetoclax] + CN(C)CCCOc1ccc(-c2ccc3ncc4c(c3c2)n(C2CCOCC2)c(=O)n4C)cn1 [AZD0156] (first compound max 1 µM, 7x7, partner max 1 µM) : what is it?
result: -0.0256
